Biological target: human recombinant DGK ξ (Homo sapiens (Human))
Sequence (Q13574 whole entry): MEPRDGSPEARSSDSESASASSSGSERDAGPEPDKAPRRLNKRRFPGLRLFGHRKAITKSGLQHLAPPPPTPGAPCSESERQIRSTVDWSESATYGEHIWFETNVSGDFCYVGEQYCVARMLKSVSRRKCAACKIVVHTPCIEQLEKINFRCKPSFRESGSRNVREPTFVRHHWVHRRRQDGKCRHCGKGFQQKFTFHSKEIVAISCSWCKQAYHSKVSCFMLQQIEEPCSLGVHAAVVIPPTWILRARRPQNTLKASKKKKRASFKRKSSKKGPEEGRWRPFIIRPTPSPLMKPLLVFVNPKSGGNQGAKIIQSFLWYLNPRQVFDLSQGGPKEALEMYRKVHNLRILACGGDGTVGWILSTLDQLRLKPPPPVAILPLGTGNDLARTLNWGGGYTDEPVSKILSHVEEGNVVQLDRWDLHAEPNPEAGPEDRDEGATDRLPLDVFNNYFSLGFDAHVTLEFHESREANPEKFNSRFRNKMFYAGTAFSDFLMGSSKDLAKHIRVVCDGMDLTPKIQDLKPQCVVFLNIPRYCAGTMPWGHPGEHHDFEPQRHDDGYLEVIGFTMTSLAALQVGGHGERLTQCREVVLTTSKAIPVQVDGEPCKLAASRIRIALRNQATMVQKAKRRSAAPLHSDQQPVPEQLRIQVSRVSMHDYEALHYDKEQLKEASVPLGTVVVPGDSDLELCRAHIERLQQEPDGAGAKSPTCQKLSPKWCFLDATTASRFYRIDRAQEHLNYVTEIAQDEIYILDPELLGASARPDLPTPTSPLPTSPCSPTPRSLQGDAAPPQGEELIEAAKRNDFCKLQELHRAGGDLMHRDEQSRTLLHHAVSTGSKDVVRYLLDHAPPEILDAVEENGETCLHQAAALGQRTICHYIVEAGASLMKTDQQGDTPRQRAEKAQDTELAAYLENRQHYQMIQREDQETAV
Test: Evaluation of DGK ξ inhibitory effect (ADP-Glo Kinase Assay)
measureName: IC50 (nM)

[[record]]
molecule = "O=C(Nc1ccc(Oc2ccccc2)c(C(F)(F)F)c1N1CCOC2(CCN(CCO)CC2)C1)c1csc(-c2ccnnc2)n1 [Example 60]"
measurename = "IC50"
readoutunit = "nM"
experimentalvalue = 3

[[record]]
molecule = "NC[C@@H]1CCCN(c2c(NC(=O)c3csc(-c4ccnnc4)n3)ccc(-c3ccccc3)c2C(F)(F)F)C1 [Example 28]"
measurename = "IC50"
readoutunit = "nM"
experimentalvalue = 42

[[record]]
molecule = "CNC[C@@H]1CCCN(c2c(NC(=O)c3csc(-c4ccnnc4)n3)ccc(Oc3ccccc3F)c2C(F)(F)F)C1 [Example 83]"
measurename = "IC50"
readoutunit = "nM"
experimentalvalue = 5

